# experiment: yeast display, Sf9 membrane polyspecificity reagent, FACS + sequencing; frameworks hold sequencing errors

[
  {
    "sequence-data": "QVQLVESGGALVQAGGSLRLSCAASGRTFVSYVMGWYRQAPGKEREMVAAISGNGGRTYYADSVKGRFTISRDYAKKTVYLQMNSLKPEDTAVFYCAAELFVSYFDVLMYYWGQGTQVTVSS",
    "polyreactivity (PSR sort gate)": "high polyreactivity"
  },
  {
    "sequence-data": "QVQLVESGGGLVQAGGSLRLICAASGSTFYSYTMGWYRPAPGKERELVARISSSGSTNYADSVKGRFTISRYNAKNTVYLQMNSLKPEDTAVYYCNKDWFYRGYDYWGQGTQVTVSS",
    "polyreactivity (PSR sort gate)": "high polyreactivity"
  }
]

---

# experiment: yeast display, Sf9 membrane polyspecificity reagent, FACS + sequencing; frameworks hold sequencing errors
property-label: polyreactivity (PSR sort gate)

[
  {
    "sequence-data": "QVQLVESGGGLVQAGGSLRLSCAASGRIFYANAMGWYRQAPGKERELVAAISSGGSTYYADSVKGRFTISRDNAKNTVYLQMNSLKPEDTAVYYCATDYQSTSVWGGHFVINPYDYWGQGTQVTVSS",
    "property-label": "polyreactivity (PSR sort gate)",
    "reported-result": "low polyreactivity"
  },
  {
    "sequence-data": "QVQLVESGGGIVQAGGSLRVSCAASGRIFRRHNMGWYRQAPGKERELVAAITSSGGSTYADSVKGRFTISRDNAQNTVYLQMNSLKPEDTAVYYCATYVAYHRGYRTYDHWGQGTQVTVSS",
    "property-label": "polyreactivity (PSR sort gate)",
    "reported-result": "low polyreactivity"
  },
  {
    "sequence-data": "QVQLVESGGGLVQAGGSLRLSCAASGRIISRYAMGWYRQAPGKERELVATITWSTTSTYYADSVKGRFTISRDNAKNTVYLQMNSLKPEDTAVYYCAASIIPGFRRDPFGYWGQGTQVTVSS",
    "property-label": "polyreactivity (PSR sort gate)",
    "reported-result": "low polyreactivity"
  },
  {
    "sequence-data": "QVQLVESGGGLVQAGGSLRLSCAASGRIFSWYAMGWYRQAPGKERELVARITSGVSTNYADSVKGRFTISRDNEKNTVYLQMNSLKPEDTAVYDCAADDYSCLYYSSTYRYEYWGQGTQVTVSS",
    "property-label": "polyreactivity (PSR sort gate)",
    "reported-result": "low polyreactivity"
  },
  {
    "sequence-data": "QVQLVESGGGLVQAGGSLRLSCAASGSTFSDNAMGWYRQAPGKERELVAAISVTGGRTYYADSVKGRFTISRDNAKNTVYLQMNSLKPEDTAVYYCAKVTILDPYSYDYWGQGTQVTVSS",
    "property-label": "polyreactivity (PSR sort gate)",
    "reported-result": "low polyreactivity"
  },
  {
    "sequence-data": "QVQLVESGGGLVQAGGSLRLSCAASGSTSGSNAMGWYRQAPGKERELVAGISYSTADTNYADSVKGRFTISRDNAKNTVYLQMNSLKPEDTAVYYCATDPFGIASRHDDYWGQGTQVTVSS",
    "property-label": "polyreactivity (PSR sort gate)",
    "reported-result": "low polyreactivity"
  },
  {
    "sequence-data": "QDQLVESGGGLVQAGGSLRLSCAASGLTLLHYAMGWYRQAPGKERELVAAISTRGGSTYYADSVKGRFTISRDNAKNTVYLQMNSLKPEDTADYYCNALKGRPRGTAGYYRVEYWGQGTQVTVSS",
    "property-label": "polyreactivity (PSR sort gate)",
    "reported-result": "high polyreactivity"
  },
  {
    "sequence-data": "QVQLVESGGGLVQAGGSLRLSCAASGRIFHPNVMGWYRQAPGKERELVAAISSGGSTYYADSVKGRFTISRDNAKNTVYLQMNSLKPEDTAVYYCATRIRSGSYPYPRYDYWGQGTQVTVSS",
    "property-label": "polyreactivity (PSR sort gate)",
    "reported-result": "high polyreactivity"
  },
  {
    "sequence-data": "QVQLVESGGGLVQAGGSLRLSCAASGSIFPYYAMGWYRQAPGKEREFVASISSVTSTYADSVKGRFTISRDNAKNTVYLQMNSLKPEDTAVYYCAADRAYSWYSVSRYNYWGQGTQVTVSS",
    "property-label": "polyreactivity (PSR sort gate)",
    "reported-result": "low polyreactivity"
  },
  {
    "sequence-data": "QVQLVESGGGLVQAGGSLRLSCAASGLTFQNNAMGRSRQAPGKERELVAVITRIGGSTYYADSVKGRFTISRDNAKNTVYLQLNSLKPEDTAVYYCAVRRRYTPGYDYWGQGTQVTVSS",
    "property-label": "polyreactivity (PSR sort gate)",
    "reported-result": "high polyreactivity"
  },
  {
    "sequence-data": "QVQLVESGRGLVQAGGSLRLSCAASGRTFRGNAMGWYREAPGKERELVAAIRYRGGSTYYADSVKGRFTISRDNAKNTVYLQMNSLKPEDTAVYYCARRYTVHTQHYDYWGQGTQVNVSS",
    "property-label": "polyreactivity (PSR sort gate)",
    "reported-result": "high polyreactivity"
  },
  {
    "sequence-data": "QVQLVESGGGLVQAGGSLRLSYAASGSTFRVYAMGWYRPATGKERELVAAISRSGGRTYYADSVKGRFTISRDNAKNTVYLQMNSLKPEDTAVYYCAADYKYTAVSDDYWGQGTQVTVSS",
    "property-label": "polyreactivity (PSR sort gate)",
    "reported-result": "high polyreactivity"
  },
  {
    "sequence-data": "QVQLVESGGGLVQAGGSLRLSCAPSGIIFPEYDMGWYRQPPGKERELVAAITKSDGRTYYADSVKGRFTISRDNAKNSVYLQMNSLKPEDTAVYYCNADPSVVAYVGFVSWGQGTQVTLSS",
    "property-label": "polyreactivity (PSR sort gate)",
    "reported-result": "low polyreactivity"
  },
  {
    "sequence-data": "QVQLVESGGGLVQAGGSLRLSCAASGFIFKYYTMGWYRPAPGNERELVAAISKNAGSTYYADSVKGRFTISRDNAKNTVYLQMNSLKPEDTAVYYCARTYSTWYYYWGQGTQVTVSS",
    "property-label": "polyreactivity (PSR sort gate)",
    "reported-result": "high polyreactivity"
  },
  {
    "sequence-data": "QVQLVESGGGLVQAGGSLRLICAASGFTIGANTMGWYREAPGKERELVAAITSGGRTYYADSVKGRFTISRDNAKNTVYLQMNSLKPEDTAVYYCAAGRPRTIFQEYGSWGQGTQVTVSS",
    "property-label": "polyreactivity (PSR sort gate)",
    "reported-result": "high polyreactivity"
  },
  {
    "sequence-data": "QVQLVESCGGLVQAGGSLRLSCADSGLTMYGYARGWYRHAPGNERELVATLTRRGGSTYYADSVKGRFTISRDNAKNTVYLQMNSLKPEDPAVYYCAATYQHQNPQGVFSGGYYYWGQGTQVTVAS",
    "property-label": "polyreactivity (PSR sort gate)",
    "reported-result": "high polyreactivity"
  },
  {
    "sequence-data": "QVQLVESGGGLVQAGGSLRLSCAASGSTFAPYAMGWYRQAPGKERELVAAIRSSGGSTYYADSVKGRFTISRDNAKNTVYLQMNSLKPEDTAVYYCADDYYTSADYVDYYYWGQGTQVTVSS",
    "property-label": "polyreactivity (PSR sort gate)",
    "reported-result": "low polyreactivity"
  },
  {
    "sequence-data": "QVQLVESGGGLVQAGGSLRLSCAASGSIFDSYAMGWYRQAPGKERELVAAISRSGSRTYYADSVKGRFTISRDNAKNTVYLQMNSLKPEDTAVYYCAAGLSGYSRKIYYWGQGTQVTVSS",
    "property-label": "polyreactivity (PSR sort gate)",
    "reported-result": "high polyreactivity"
  },
  {
    "sequence-data": "QVQLVESGGGLVQAGGSLRLSCAASGSIFLYNAMGWYRQAPGKERELVAAISSSSDRTYYADSVKGRFTISRDNAKNTVYLQMNSLKPEDTAVYYCNVVYIGWRKYEYWGQGTQVTVSS",
    "property-label": "polyreactivity (PSR sort gate)",
    "reported-result": "high polyreactivity"
  },
  {
    "sequence-data": "QVQLVESGGGLVQAGGSLRLSCAASGSTFYGYTMGWYRQATGKERELVAVITYGGSTYYADSVKGRFTISRDNAKNTVYLQMNSLKPEDTAVYYCAKRYAYPAYGRPWRIGRTYDYWGQGTQVTVSS",
    "property-label": "polyreactivity (PSR sort gate)",
    "reported-result": "low polyreactivity"
  },
  {
    "sequence-data": "QVQLVESGGGLVQAGGSLRLSCAASGSNFPGYAMGWYRQAPGKERELVAAISTSGGSTYADSVKGRFTISRDNAKNTVYLQMNSLKPEDTAVYYCAATYTYTSPVYYSLDGPWPYDYWGQGTQVTVSS",
    "property-label": "polyreactivity (PSR sort gate)",
    "reported-result": "low polyreactivity"
  }
]
